biological target: UBE2G1; assay: reporter assay of Huesken 2005; settings: siRNA
Oligonucleotides are written 5' to 3', each unit as a sugar letter and its base; * is a phosphorothioate linkage, no mark a phosphodiester; rarer units and linkages stand in square brackets, end groups in braces. Plain capitals give the bases only. d = 2'-deoxy (DNA); r = 2'-OH (RNA)
Where normalised inhibition (eCFP-eYFP dual reporter) equals or exceeds 70%, the correct label is T; where it does not, the label is F.

>  <substance>
sense rGrCrUrGrCrGrArArArGrArArUrGrGrArGrGrGdTdT / antisense rCrCrCrUrCrCrArUrUrCrUrUrUrCrGrCrArGrCdAdT

>  <class_assignment>
F

$$$$
>  <substance>
sense rUrCrCrUrUrArUrUrArUrUrGrGrCrCrCrUrCrCdTdT / antisense rGrGrArGrGrGrCrCrArArUrArArUrArArGrGrAdCdT

>  <class_assignment>
F

$$$$
>  <substance>
sense rGrArUrUrArUrCrCrCrCrUrCrCrGrArCrCrUrCdTdT / antisense rGrArGrGrUrCrGrGrArGrGrGrGrArUrArArUrCdTdT

>  <class_assignment>
T

$$$$
>  <substance>
sense rUrCrCrArCrArCrUrGrUrGrGrArArArCrCrArUdTdT / antisense rArUrGrGrUrUrUrCrCrArCrArGrUrGrUrGrGrAdTdA

>  <class_assignment>
T

$$$$
>  <substance>
sense rCrArUrUrArCrArGrArArArUrCrUrGrGrCrArCdTdT / antisense rGrUrGrCrCrArGrArUrUrUrCrUrGrUrArArUrGdAdA

>  <class_assignment>
F

$$$$
>  <substance>
sense rGrArUrArArGrUrArUrGrGrUrUrArUrGrArArAdTdT / antisense rUrUrUrCrArUrArArCrCrArUrArCrUrUrArUrCdTdT

>  <class_assignment>
T

$$$$
>  <substance>
sense rArCrCrUrCrCrUrArArArArUrGrArArArUrUrCdTdT / antisense rGrArArUrUrUrCrArUrUrUrUrArGrGrArGrGrUdCdG

>  <class_assignment>
F

$$$$
>  <substance>
sense rArArCrCrArUrCrArUrGrArUrUrArGrUrGrUrCdTdT / antisense rGrArCrArCrUrArArUrCrArUrGrArUrGrGrUrUdTdC

>  <class_assignment>
F

$$$$
>  <substance>
sense rGrGrArArArCrCrArUrCrArUrGrArUrUrArGrUdTdT / antisense rArCrUrArArUrCrArUrGrArUrGrGrUrUrUrCrCdAdC

>  <class_assignment>
F

$$$$
>  <substance>
sense rArCrCrUrGrCrUrArArUrGrUrUrGrArUrGrCrUdTdT / antisense rArGrCrArUrCrArArCrArUrUrArGrCrArGrGrUdGdA

>  <class_assignment>
T

$$$$
>  <substance>
sense rGrArCrArArUrGrArUrCrUrCrUrArCrCrGrArUdTdT / antisense rArUrCrGrGrUrArGrArGrArUrCrArUrUrGrUrCdAdT

>  <class_assignment>
T

$$$$
>  <substance>
sense rArGrUrGrUrCrArUrUrUrCrUrArUrGrCrUrGrGdTdT / antisense rCrCrArGrCrArUrArGrArArArUrGrArCrArCrUdAdA

>  <class_assignment>
F

$$$$
>  <substance>
sense rUrCrCrCrUrArUrCrCrArCrArCrUrGrUrGrGrAdTdT / antisense rUrCrCrArCrArGrUrGrUrGrGrArUrArGrGrGrAdGdC

>  <class_assignment>
F

$$$$
>  <substance>
sense rUrUrCrUrArUrGrCrUrGrGrCrArGrArCrCrCrUdTdT / antisense rArGrGrGrUrCrUrGrCrCrArGrCrArUrArGrArAdAdT

>  <class_assignment>
F

$$$$
>  <substance>
sense rArCrArCrUrGrUrGrGrArArArCrCrArUrCrArUdTdT / antisense rArUrGrArUrGrGrUrUrUrCrCrArCrArGrUrGrUdGdG

>  <class_assignment>
T

$$$$
>  <substance>
sense rArArUrCrUrGrGrCrArCrCrCrArArArUrGrUrUdTdT / antisense rArArCrArUrUrUrGrGrGrUrGrCrCrArGrArUrUdTdC

>  <class_assignment>
T

$$$$
>  <substance>
sense rArGrArUrArGrArArArUrGrGrArGrArArUrUrUdTdT / antisense rArArArUrUrCrUrCrCrArUrUrUrCrUrArUrCrUdTdC

>  <class_assignment>
T

$$$$
>  <substance>
sense rArUrCrCrArGrUrGrGrArArGrGrCrUrUrUrUrCdTdT / antisense rGrArArArArGrCrCrUrUrCrCrArCrUrGrGrArUdTdT

>  <class_assignment>
F

$$$$
>  <substance>
sense rArArGrUrUrGrCrCrCrGrCrUrGrUrGrUrArArGdTdT / antisense rCrUrUrArCrArCrArGrCrGrGrGrCrArArCrUrUdTdT

>  <class_assignment>
T

$$$$
>  <substance>
sense rArGrArUrArCrArCrUrUrUrArUrGrArArGrGrUdTdT / antisense rArCrCrUrUrCrArUrArArArGrUrGrUrArUrCrUdGdG

>  <class_assignment>
T

$$$$
>  <substance>
sense rUrGrCrUrGrCrGrArArArGrArArUrGrGrArGrGdTdT / antisense rCrCrUrCrCrArUrUrCrUrUrUrCrGrCrArGrCrAdTdC

>  <class_assignment>
F

$$$$
